Data origin: PubChem BioAssay (NCI)

System: SW-620 colon
Test: NCI tumour cell line growth inhibition, 48 h
GI50: recorded values
property_label: GI50

mol	property_label	recorded_value
COc1ccc(OC)c(-c2cc(-c3ccccc3)nn2-c2ccc(S(=O)(=O)NC(C)=O)cc2)c1	GI50	3.52 µM
CCN1CCN(Cc2ccc(NC(=O)Nc3ccc(-n4ccc5c(NC(=O)c6ccccc6)nccc54)cc3)cc2C(F)(F)F)CC1	GI50	0.513 µM
Nc1cc(N)c2nc(-c3ccccc3)c(Oc3ccc(F)cc3)nc2c1	GI50	19.5 µM
COc1ccc(Cl)cc1Nc1nc(C(F)(F)F)ccc1C(=O)NN	GI50	27.9 µM
COc1ccc(C(=O)N2c3ccccc3Sc3ccccc32)c(F)c1	GI50	0.458 µM
Fc1cccc(COc2ccc(Nc3ncnc4sc(-c5ccco5)cc34)cc2Cl)c1	GI50	> 25 µM
CCOC(=O)c1c(NC(=O)c2ccc(C(C)C)cc2)sc2c(CN(C)C)c(O)ccc12	GI50	1.7 µM
CC[O-].CC[O-].O=C1C(=C([O-])c2ccccc2)C(=O)c2ccccc21.O=C1C(=C([O-])c2ccccc2)C(=O)c2ccccc21.[Ti+4]	GI50	> 100 µM
COc1ccc(-c2cc(-c3ccc(Cl)cc3)c(C#N)c(=O)n2CCCCC(=O)Nc2ccccc2N)cc1	GI50	12.6 µM

* * *

System: DU-145 prostate
Assay: NCI tumour cell line growth inhibition, 48 h

mol	TGI
CNC(=S)NNc1ncnc2c1c(-c1ccc(Cl)cc1)cn2-c1ccc(C)cc1	43.4 µM
Cc1cc2c(C(C)C)c(O)c(O)c(C=Nc3cc(C(F)(F)F)ccc3Cl)c2c(O)c1-c1c(C)cc2c(C(C)C)c(O)c(O)c(C=Nc3cc(C(F)(F)F)ccc3Cl)c2c1O	> 100 µM
CCOC(=O)Cn1nnc2cc(Nc3c(C)[n+]([O-])c4cc(F)c(OCC)cc4[n+]3[O-])ccc21	> 100 µM
O=C(/C=C\Nc1ccccc1O)C(F)(F)F	> 100 µM

* * *

TGI listing for selected molecules.
System: HS 578T breast
Experiment: NCI tumour cell line growth inhibition, 48 h
property_label: TGI

molecule	recorded_value
C#C[C@]1(O)CC[C@H]2[C@@H]3CC=C4c5nc(Nc6ccccn6)sc5CC[C@]4(C)[C@H]3CC[C@@]21C	2.4 µM
COc1ccc(C2Oc3c(OC)cc(CCCO)cc3C2CO)cc1OC (stereo not drawn)	> 100 µM
CC[N+]1(C)CCC(O)(c2ccc(C)cc2)C(C(=O)c2ccc(C)cc2)C1 (stereo not drawn)	> 100 µM
Cc1cc2c(C(C)C)c(O)c(O)c(C=Nc3cc(C(F)(F)F)ccc3Cl)c2c(O)c1-c1c(C)cc2c(C(C)C)c(O)c(O)c(C=Nc3cc(C(F)(F)F)ccc3Cl)c2c1O	> 100 µM
CCCCN1C(=O)CC2[C@@H]3CCc4cc(OC)ccc4C3CC[C@]2(C)C1=O (stereo partly drawn)	> 10 µM
O=c1ccn(-c2ccccn2)c(=O)n1-c1ccccn1	> 100 µM
C[C@H](c1ccccc1)N1C(=O)[C@@H](OCc2ccccc2)[C@H]1[C@H](COC(=O)COCc1ccccc1)OCc1ccccc1	> 100 µM
COc1cc(-c2csc(NC(=O)c3cc(C(F)(F)F)cc(C(F)(F)F)c3)n2)cc(OC)c1OC	> 100 µM

* * *

Tested on: RPMI-8226 leukemia
Experiment: NCI tumour cell line growth inhibition, 48 h; in the data active means GI50 below about 0.43 µM; inactive means the rest
Outcomes: class 1 for active, class 0 for inactive

molecule	discrete_label
O=C1/C(=C/c2ccc(Cl)cc2)CCCc2ccc(F)cc21	class 0
C/C(=N\O)c1ccc(Nc2cc(-n3nnc4ccccc43)nc3ccccc23)cc1	class 0
N/C(=N\OC(=O)c1ccccc1)C(C(=O)NOC(=O)c1ccccc1)C1CCCCC1 (stereo not drawn)	class 0
CNC(=O)Nc1ccc(-c2nc(N3CCOCC3)nc3c2cnn3C2CCOCC2)cc1	class 1
COc1ccc(Cl)cc1Nc1nc(C(F)(F)F)ccc1C(=O)NN	class 0
S=C(N/N=C/c1cc(Cl)cc(Cl)c1)NC12CC3CC(CC(C3)C1)C2	class 0
COc1cc2cc(Oc3ccc(NC(=O)c4cccc(C(F)(F)F)c4)cc3)c(C)nc2cc1OC	class 0
CCN(c1ccc(CO)c(Cl)c1)C(C)c1ccc(F)cc1 (stereo not drawn)	class 0
